Each entry below carries its recorded growth inhibition.
assay_explanation: NCI Yeast Anticancer Drug Screen. Data for the sgs1 strain (AID 173);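 note: 0% = growth of vehicle-only control cultures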
stated_conditions: S. cerevisiae sgs1 mutant, at 1.2 µM, stronger effect = higher value
About 79,000 compounds went through this panel and 15% of them were active in at least one assay; those are over-represented in the sample as a whole.
parameter: growth inhibition (%)

[
  {
    "molecule": "Cc1cc(O)c2c(c1)C(=O)C=C(Br)C2=O",
    "parameter": "growth inhibition",
    "measurement_units": "%",
    "test_result": 4
  },
  {
    "molecule": "COC(=O)/C=C1/OC(c2ccc(Br)cc2)=C(Br)C1=O",
    "parameter": "growth inhibition",
    "measurement_units": "%",
    "test_result": -18
  },
  {
    "molecule": "CC(=O)c1cc2c(Cl)cc(Cl)cc2oc1=O",
    "parameter": "growth inhibition",
    "measurement_units": "%",
    "test_result": -31
  },
  {
    "molecule": "CCc1nc(N)nc(N)c1-c1ccc(NCCCCCCN)c([N+](=O)[O-])c1",
    "parameter": "growth inhibition",
    "measurement_units": "%",
    "test_result": -3
  },
  {
    "molecule": "CN=C(N)N/N=C(\\C)c1ccc2oc3ccc(/C(C)=N/NC(N)=NC)cc3c2c1",
    "parameter": "growth inhibition",
    "measurement_units": "%",
    "test_result": -21
  },
  {
    "molecule": "Cn1c2nc3ccccc3c-2nc2ccccc21",
    "parameter": "growth inhibition",
    "measurement_units": "%",
    "test_result": 8
  },
  {
    "molecule": "CCC(c1ccc(O)cc1)C(CC)c1ccc(OCCN)cc1 (stereo unspecified)",
    "parameter": "growth inhibition",
    "measurement_units": "%",
    "test_result": -23
  },
  {
    "molecule": "NC(N)=NCCCS(=O)(=O)Nc1ccc(Nc2c3ccccc3nc3cc([N+](=O)[O-])ccc23)cc1",
    "parameter": "growth inhibition",
    "measurement_units": "%",
    "test_result": 29
  },
  {
    "molecule": "CCC(=O)N(c1ccccc1)C(C)CN1CCC(O)(c2cccc(C(F)(F)F)c2)CC1 (stereo unspecified)",
    "parameter": "growth inhibition",
    "measurement_units": "%",
    "test_result": 2
  },
  {
    "molecule": "COc1cc(CNc2ccc(C(C)C)cc2)cc(OC)c1OC",
    "parameter": "growth inhibition",
    "measurement_units": "%",
    "test_result": 26
  },
  {
    "molecule": "COc1ccc(/C=C2\\SC(=S)N(C=C3C(=O)NC(=S)NC3=O)C2=O)cc1OC",
    "parameter": "growth inhibition",
    "measurement_units": "%",
    "test_result": 11
  }
]

Cited source for all entries: PubChem BioAssay (NCI)
